Where do these numbers come from? They come from patent US20220380459A1.

molecular target: T1, cyno CD33 extracellular domain (Cynomolgus/Rhesus (cyno)); experiment: SPR, Fab captured, 37C;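 note: surface plasmon resonance with Fabs captured on anti-Fab surface, soluble monomeric CD33 as analyte at several concentrations, double-referenced 1:1 model fit, KD as koff/kon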
T1 construct: soluble monomeric ECD; also called cyno CD33 ECD
measurement_kind: pKd
The read-out pKd is expressed as -log10 of concentration in moles per litre.

Problem: Using known records, supply pKd for ADI-11776 Fab (Fab, V domains shown, Fab fragment; also called Ab3; H76) VH: EVQLLESGGGLVQPGGSLRLSCAASGFTFSKYTMSWVRQAPGKGLEWVSAIVGSGESTYFADSVKGRFTISRDNSKNTLYLQMNSLRAEDTAVYYCAREGGPYYDSSGYFVYYGMDVWGQGTTVTVSS VL: DIQMTQSPSTLSASVGDRVTITCRASQSISSWLAWYQQKPGKAPKLLIYKASSLESGVPSRFSGSGSGTEFTLTISSLQPDDFATYYCQQYDDLPTFGGGTKVEIK
Result: 8.74

Problem: Return pKd for the following binder: ADI-10159 Fab (Fab, V domains shown, Fab fragment; also called Ab1; G59) VH: EVQLVESGGGLVQPGGSLRLSCAASGFTFSSYGMSWVRQAPGKGLEWVANIKQDGSEKYYVDSVKGRFTISRDNAKNSLYLQMNSLRAEDTAVYYCAREGGPYYDSSGYFVYYGMDVWGQGTTVTVSS VL: DIQMTQSPSTLSASVGDRVTITCRASQSISSWLAWYQQKPGKAPKLLIYDASSLESGVPSRFSGSGSGTEFTLTISSLQPDDFATYYCQQYESFPTFGGGTKVEIK
Result: 7.13

Problem: Identify the reported pKd for the following entry. ADI-11819 Fab (Fab, V domains shown, Fab fragment; also called Ab8) VH: EVQLVESGGGLVKPGGSLRLSCAASGFTFSSYAMSWVRQAPGKGLEWVSSISSSSEGIYYADSVKGRFTISRDNAKNSLYLQMNSLRAEDTAVYYCAREGGPYYDSSGYFVYYGMDVWGQGTTVTVSS VL: DIQMTQSPSTLSASVGDRVTITCRASNSISSWLAWYQQKPGKAPKLLIYEASSTKSGVPSRFSGSGSGTEFTLTISSLQPDDFATYYCQQYDDLPTFGGGTKVEIK
Result: 8.30

Problem: Give the reported pKd for this binder. ADI-11809 Fab (Fab, V domains shown, Fab fragment; also called Ab6) VH: EVQLVESGGGLVQPGGSLRLSCAASGFTFPSYWMSWVRQAPGKGLEWVATIKRDGSEKGYVDSVKGRFTISRDNAKNSLYLQMNSLRAEDTAVYYCARPLNAGELDVWGQGTMVTVSS VL: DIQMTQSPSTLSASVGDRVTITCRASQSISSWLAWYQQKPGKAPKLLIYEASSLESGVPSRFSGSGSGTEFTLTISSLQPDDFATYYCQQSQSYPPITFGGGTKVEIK
Result: 9.93

Problem: Name the recorded pKd of the item ADI-11828 Fab (Fab, V domains shown, Fab fragment; also called Ab27) VH: EVQLVESGGGLVQPGGSLRLSCAASGFTFSSYWMSWVRQAPGKGLEWVANINQDGSEVYYVDSVKGRFTISRDNAKNSLYLQMNSLRAEDTAVYYCARDVGPGIAYQGHFDYWGQGTLVTVSS VL: DIQMTQSPSSLSASVGDRVTITCRASQSIYYYLNWYQQKPGKAPKLLIYAASSRQSGVPSRFSGSGSGTDFTLTISSLQPEDFATYYCQQVYDTPLTFGGGTKVEIK in your answer.
Result: 7.27
